experiment: chemical genetic growth profiling, strain panel (AID 1159580);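 also: tested at 20 µM; growth read once vehicle control cultures reached saturation at 30 °C; 1 = growth at the plate median or of vehicle wells; lower values mean less growth of the strain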; conditions: S. cerevisiae deletion strains, growth OD, locus YNL307C, strain MCK1 (second series), stronger effect = lower value
Out of some 5,500 compounds screened, about 2,000 (36%) were called active. About 18% were inconclusive and are not listed. The list shows a part of the results.
Measured normalized growth by item

Consider the reported normalized growth for these molecules:
- STRUCTURE_SMILES: "N=c1ccc2nc3c(Cl)c4c(c(Cl)c3oc-2c1S(=O)(=O)O)Nc1ccc(N)c(S(=O)(=O)O)c1O4"
  normalized growth: "1.01 (inactive)"
- STRUCTURE_SMILES: "Cc1csc2ncnc(N/N=C\\c3ccccc3Cl)c12"
  normalized growth: "0.962 (inactive)"
- STRUCTURE_SMILES: "CC(C)(C)c1csc(NC(=O)Nc2ccc(Cl)cc2)n1"
  normalized growth: "0.553 (active)"

// lookup normalized growth for `COc1cc(NC(=S)Nc2ccccc2OC(F)(F)F)cc(C(F)(F)F)c1`
0.956 (inactive)

* * *

assay: chemical genetic growth profiling, strain panel (AID 1159580);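 also: tested at 20 µM; growth read once vehicle control cultures reached saturation at 30 °C; 1 = growth at the plate median or of vehicle wells; lower values mean less growth of the strain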; details: S. cerevisiae deletion strains, growth OD, locus YLR262C, strain YPT6 (second series), stronger effect = lower value
The campaign covered roughly 5,500 compounds. About 2,000 (36%) were called active. Roughly 18% stayed inconclusive and do not appear here. The list shows a part of the results.
Hi! Just check whether normalized growth is below 0.9. Below gives true, equal or above gives false.

Reference set (4 entries):
- COMPOUND: "Cn1nnnc1SCC1=C(C(=O)O)N2C(=O)C(NC(=O)C(O)c3ccccc3)C2SC1 (stereo not given)"
  LABEL_VALUE: "false"
- COMPOUND: "S=c1ccss1"
  LABEL_VALUE: "true"
- COMPOUND: "NCC(=O)CCC(=O)O"
  LABEL_VALUE: "false"
- COMPOUND: "CC(C)c1ccc2c(c1O)CC[C@H]1C3=C(CC[C@]21C)C(=O)OC3"
  LABEL_VALUE: "true"

# input for lookup
Does `O=C1CC[C@]23C=CC(=O)NCCCCNCCCNC(=O)/C=C/c4ccc(c2c4)O[C@@H]3C1` have normalized growth strictly under 0.9?
false

* * *

assay: chemical genetic growth profiling, strain panel (AID 1159580);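 also: tested at 20 µM; growth read once vehicle control cultures reached saturation at 30 °C; 1 = growth at the plate median or of vehicle wells; lower values mean less growth of the strain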; conditions: S. cerevisiae deletion strains, growth OD, locus YLR258W, strain gsy2
The whole screen tested about 5,500 compounds, of which about 2,000 (36%) were called active. About 18% were inconclusive and are not listed. Rule as the data show it: active = normalized growth mostly below about 0.91 (no sharp cut-off); inconclusive = no clear call, values can overlap the other calls; inactive = mostly above about 0.92. This is one part of the list.
Classes to choose from: yes (active), no (inactive)

Reference set (10 entries):
- COMPOUND: "CC(=O)Nc1cccc(O)c1"
  LABEL_VALUE: "no"
- COMPOUND: "COc1ccc2cc3[n+](cc2c1OC)CCc1cc2c(cc1-3)OCO2"
  LABEL_VALUE: "no"
- COMPOUND: "COc1c2c(cc3c1OCO3)CC[N+](C)=C2"
  LABEL_VALUE: "no"
- COMPOUND: "ClC(Cl)=C(c1ccc(Cl)cc1)c1ccc(Cl)cc1"
  LABEL_VALUE: "no"
- COMPOUND: "S=c1ccss1"
  LABEL_VALUE: "no"
- COMPOUND: "O=C(O)c1nc2cc(Cl)c(Cl)cc2[nH]c1=O"
  LABEL_VALUE: "no"
- COMPOUND: "CCCCCCCCCCCCCCCC[n+]1ccccc1"
  LABEL_VALUE: "yes"
- COMPOUND: "CC1(C)O[C@@H]2CC3C4C[C@H](F)C5=CC(=O)C=CC5(C)C4C(O)CC3(C)[C@]2(C(=O)CO)O1 (stereo partly drawn)"
  LABEL_VALUE: "no"
- COMPOUND: "CC(=O)Nc1ccc(O)cc1"
  LABEL_VALUE: "no"
- COMPOUND: "O=c1[nH]c2cc(Cl)c(Cl)cc2[nH]c1=O"
  LABEL_VALUE: "no"

Query: recorded result category for `CC(=O)Nc1ccc(OC(=O)c2ccccc2O)cc1` in this test
no

Query: recorded result category for `Nc1ccc(C(=O)O)c(O)c1` in this test
no

Query: recorded result category for OC1C(O)C(O)C(O)C(O)C1O (stereo not drawn) in this test
no

Data origin, for the record: PubChem BioAssay AID1159580
